- Test system: MET
- Procedure Text: MET biochemical kinase assay
- Design: species or system human; concentration or dose not given beside the values
Criterion: Met Kinase % Inhibition strictly under 40%. Met: Yes. Not met: No.

Examples with answers:
INSERT INTO assay_data (compound_smiles, label_value) VALUES
  ('COc1cc(C=C2C(=O)Nc3ccc(CCCl)cc32)cc(OC)c1OC', 'No'),
  ('O=C1Nc2ccc(S(=O)(=O)Nc3ccc(C(F)(F)F)cc3)cc2C1=Cc1ccncc1', 'No'),
  ('CNS(=O)(=O)c1ccc2c(c1)C(=Cc1c(Br)cnn1-c1ccc(Cl)cc1)C(=O)N2', 'Yes'),
  ('CNS(=O)(=O)c1ccc2c(c1)C(=Cc1sccc1C)C(=O)N2', 'Yes'),
  ('COc1ccc(O)c(C=C2C(=O)Nc3ccc(S(=O)(=O)N4CCOCC4)cc32)c1', 'No'),
  ('Cc1[nH]c(C=C2C(=O)Nc3ccc(S(=O)(=O)Nc4ccc(C(F)(F)F)cc4)cc32)c(Br)c1Br', 'No'),
  ('Cc1csc2sc(C=C3C(=O)Nc4c(Br)cc(Br)cc43)c(C)c12', 'Yes'),
  ('CC(C)(C)c1ccc(C=C2C(=O)Nc3ccc(I)cc32)cc1', 'No'),
  ('N#Cc1cccc(C=C2C(=O)Nc3ccc(S(=O)(=O)N4CCOCC4)cc32)c1', 'Yes');

**Q:** Problem: For the molecule CNS(=O)(=O)c1ccc2c(c1)C(=Cc1ccco1)C(=O)N2 , is Met Kinase % Inhibition under 40%?
**A:** No
